This listing pairs compounds with measured selectivity ratio.
- test: Selectivity index, ratio of IC50 for cytotoxicity against human HaCaT cells to IC50 for cytotoxicity against human PC-3 cells
- Assay type: toxicity, cell-based
- stated.conditions: HaCaT cells versus PC-3 cells, read-out: Ratio IC50
reported.metric: selectivity ratio

>>> experimental_result("CC[C@@H](C(=O)[C@@H](C)[C@@H](O)[C@H](C)[C@@H]1O[C@@H]([C@@H](CC)C(=O)OCCCC[P+](c2ccccc2)(c2ccccc2)c2ccccc2)CC[C@@H]1C)[C@H]1O[C@]2(C=C[C@@H](O)[C@]3(CC[C@@](C)([C@H]4CC[C@](O)(CC)[C@H](C)O4)O3)O2)[C@H](C)C[C@@H]1C.[Br-]")
0.9
>>> experimental_result("CC[C@@H](C(=O)[C@@H](C)[C@@H](O)[C@H](C)[C@@H]1O[C@@H]([C@@H](CC)C(=O)OCc2ccccc2)CC[C@@H]1C)[C@H]1O[C@]2(C=C[C@@H](O)[C@]3(CC[C@@](C)([C@H]4CC[C@](O)(CC)[C@H](C)O4)O3)O2)[C@H](C)C[C@@H]1C")
0.9
>>> experimental_result("CC[C@@H](C(=O)[C@@H](C)[C@@H](O)[C@H](C)[C@@H]1O[C@@H]([C@@H](CC)C(=O)OCCCCCC[P+](c2ccccc2)(c2ccccc2)c2ccccc2)CC[C@@H]1C)[C@H]1O[C@]2(C=C[C@@H](O)[C@]3(CC[C@@](C)([C@H]4CC[C@](O)(CC)[C@H](C)O4)O3)O2)[C@H](C)C[C@@H]1C.[Br-]")
0.4
>>> experimental_result("CC[C@@H](C(=O)[C@@H](C)[C@@H](O)[C@H](C)[C@@H]1O[C@@H]([C@@H](CC)C(=O)OCCCC[P+](c2ccccc2)(c2ccccc2)c2ccc(N(C)C)cc2)CC[C@@H]1C)[C@H]1O[C@]2(C=C[C@@H](O)[C@]3(CC[C@@](C)([C@H]4CC[C@](O)(CC)[C@H](C)O4)O3)O2)[C@H](C)C[C@@H]1C.[Br-]")
0.5
>>> experimental_result("CC[C@@H](C(=O)[C@@H](C)[C@@H](O)[C@H](C)[C@@H]1O[C@@H]([C@@H](CC)C(=O)OCCCCCC[P+](c2ccccc2)(c2ccccc2)c2ccc(N(C)C)cc2)CC[C@@H]1C)[C@H]1O[C@]2(C=C[C@@H](O)[C@]3(CC[C@@](C)([C@H]4CC[C@](O)(CC)[C@H](C)O4)O3)O2)[C@H](C)C[C@@H]1C.[Br-]")
0.5
>>> experimental_result("CCCC[P+](CCCC)(CCCC)CCCCCCOC(=O)[C@H](CC)[C@H]1CC[C@H](C)[C@H]([C@@H](C)[C@H](O)[C@H](C)C(=O)[C@H](CC)[C@H]2O[C@]3(C=C[C@@H](O)[C@]4(CC[C@@](C)([C@H]5CC[C@](O)(CC)[C@H](C)O5)O4)O3)[C@H](C)C[C@@H]2C)O1.[Br-]")
0.2

---

- test: Selectivity index, ratio of IC50 for cytotoxicity against chinese hamster V79 cells to IC50 for cytotoxicity against human SW480 cells
- Type: toxicity, cell-based
- stated.conditions: V79 cells versus SW480 cells, read-out: Ratio IC50
reported.metric: selectivity ratio

>>> experimental_result("CC[C@@H](C(=O)[C@@H](C)[C@@H](O)[C@H](C)[C@@H]1O[C@@H]([C@@H](CC)C(=O)OCCCC[P+](c2ccccc2)(c2ccccc2)c2ccccc2)CC[C@@H]1C)[C@H]1O[C@]2(C=C[C@@H](O)[C@]3(CC[C@@](C)([C@H]4CC[C@](O)(CC)[C@H](C)O4)O3)O2)[C@H](C)C[C@@H]1C.[Br-]")
0.3
>>> experimental_result("CC[C@@H](C(=O)[C@@H](C)[C@@H](O)[C@H](C)[C@@H]1O[C@@H]([C@@H](CC)C(=O)OCCCCCC[P+](c2ccc(OC)cc2)(c2ccc(OC)cc2)c2ccc(OC)cc2)CC[C@@H]1C)[C@H]1O[C@]2(C=C[C@@H](O)[C@]3(CC[C@@](C)([C@H]4CC[C@](O)(CC)[C@H](C)O4)O3)O2)[C@H](C)C[C@@H]1C.[Br-]")
1.1
>>> experimental_result("CC[C@@H](C(=O)[C@@H](C)[C@@H](O)[C@H](C)[C@@H]1O[C@@H]([C@@H](CC)C(=O)OCCCC[P+](c2ccc(C)cc2)(c2ccc(C)cc2)c2ccc(C)cc2)CC[C@@H]1C)[C@H]1O[C@]2(C=C[C@@H](O)[C@]3(CC[C@@](C)([C@H]4CC[C@](O)(CC)[C@H](C)O4)O3)O2)[C@H](C)C[C@@H]1C.[Br-]")
8.6

---

- test: Cytotoxicity against human HaCaT cells incubated for 72 hrs by MTT assay
- Format: toxicity, cell-based
This listing pairs molecules with measured IC50 at 72 h.
reported.metric: IC50 at 72 h (nM)

>>> experimental_result("CCCC[P+](CCCC)(CCCC)CCCCOC(=O)[C@H](CC)[C@H]1CC[C@H](C)[C@H]([C@@H](C)[C@H](O)[C@H](C)C(=O)[C@H](CC)[C@H]2O[C@]3(C=C[C@@H](O)[C@]4(CC[C@@](C)([C@H]5CC[C@](O)(CC)[C@H](C)O5)O4)O3)[C@H](C)C[C@@H]2C)O1.[Br-]")
700
>>> experimental_result("CC[C@@H](C(=O)[C@@H](C)[C@@H](O)[C@H](C)[C@@H]1O[C@@H]([C@@H](CC)C(=O)OCCCCCC[P+](c2ccc(C)cc2)(c2ccc(C)cc2)c2ccc(C)cc2)CC[C@@H]1C)[C@H]1O[C@]2(C=C[C@@H](O)[C@]3(CC[C@@](C)([C@H]4CC[C@](O)(CC)[C@H](C)O4)O3)O2)[C@H](C)C[C@@H]1C.[Br-]")
1050

---

This listing pairs compounds with measured Activity.
- Test system: MDA-MB-231
- test: Induction of apoptosis in human MDA-MB-231 cells assessed as necrotic cells at IC50 incubated for 72 hrs by Annexin V-FITC staining based flow cytometry analysis (reference value: 1.17 %)
- Type: functional
reported.metric: Activity

>>> experimental_result("CC[C@@H](C(=O)[C@@H](C)[C@@H](O)[C@H](C)[C@@H]1O[C@@H]([C@@H](CC)C(=O)OCCCC[P+](c2ccccc2)(c2ccccc2)c2ccccc2)CC[C@@H]1C)[C@H]1O[C@]2(C=C[C@@H](O)[C@]3(CC[C@@](C)([C@H]4CC[C@](O)(CC)[C@H](C)O4)O3)O2)[C@H](C)C[C@@H]1C.[Br-]")
"5.23%"
>>> experimental_result("CCCC[P+](CCCC)(CCCC)CCCCOC(=O)[C@H](CC)[C@H]1CC[C@H](C)[C@H]([C@@H](C)[C@H](O)[C@H](C)C(=O)[C@H](CC)[C@H]2O[C@]3(C=C[C@@H](O)[C@]4(CC[C@@](C)([C@H]5CC[C@](O)(CC)[C@H](C)O5)O4)O3)[C@H](C)C[C@@H]2C)O1.[Br-]")
"5.15%"
>>> experimental_result("CC[C@@H](C(=O)[C@@H](C)[C@@H](O)[C@H](C)[C@@H]1O[C@@H]([C@@H](CC)C(=O)OCc2ccccc2)CC[C@@H]1C)[C@H]1O[C@]2(C=C[C@@H](O)[C@]3(CC[C@@](C)([C@H]4CC[C@](O)(CC)[C@H](C)O4)O3)O2)[C@H](C)C[C@@H]1C")
"2.17%"
>>> experimental_result("CC[C@@H](C(=O)[C@@H](C)[C@@H](O)[C@H](C)[C@@H]1O[C@@H]([C@@H](CC)C(=O)O)CC[C@@H]1C)[C@H]1O[C@]2(C=C[C@@H](O)[C@]3(CC[C@@](C)([C@H]4CC[C@](O)(CC)[C@H](C)O4)O3)O2)[C@H](C)C[C@@H]1C")
"2.97%"

---

- test: Selectivity index, ratio of IC50 for cytotoxicity against chinese hamster V79 cells to IC50 for cytotoxicity against human MDA-MB-231 cells
- Type: toxicity, cell-based
- stated.conditions: V79 cells versus MDA-MB-231 cells, read-out: Ratio IC50
reported.metric: selectivity ratio

>>> experimental_result("CC[C@@H](C(=O)[C@@H](C)[C@@H](O)[C@H](C)[C@@H]1O[C@@H]([C@@H](CC)C(=O)OCCCCCC[P+](c2ccccc2)(c2ccccc2)c2ccc(N(C)C)cc2)CC[C@@H]1C)[C@H]1O[C@]2(C=C[C@@H](O)[C@]3(CC[C@@](C)([C@H]4CC[C@](O)(CC)[C@H](C)O4)O3)O2)[C@H](C)C[C@@H]1C.[Br-]")
0.7
>>> experimental_result("CC[C@@H](C(=O)[C@@H](C)[C@@H](O)[C@H](C)[C@@H]1O[C@@H]([C@@H](CC)C(=O)OCCCCCC[P+](c2ccccc2)(c2ccccc2)c2ccccc2)CC[C@@H]1C)[C@H]1O[C@]2(C=C[C@@H](O)[C@]3(CC[C@@](C)([C@H]4CC[C@](O)(CC)[C@H](C)O4)O3)O2)[C@H](C)C[C@@H]1C.[Br-]")
0.2
>>> experimental_result("CC[C@@H](C(=O)[C@@H](C)[C@@H](O)[C@H](C)[C@@H]1O[C@@H]([C@@H](CC)C(=O)OCCCC[P+](c2ccccc2OC)(c2ccccc2OC)c2ccccc2OC)CC[C@@H]1C)[C@H]1O[C@]2(C=C[C@@H](O)[C@]3(CC[C@@](C)([C@H]4CC[C@](O)(CC)[C@H](C)O4)O3)O2)[C@H](C)C[C@@H]1C.[Br-]")
0.9
>>> experimental_result("CC[C@@H](C(=O)[C@@H](C)[C@@H](O)[C@H](C)[C@@H]1O[C@@H]([C@@H](CC)C(=O)OCCCC[P+](c2ccc(C)cc2)(c2ccc(C)cc2)c2ccc(C)cc2)CC[C@@H]1C)[C@H]1O[C@]2(C=C[C@@H](O)[C@]3(CC[C@@](C)([C@H]4CC[C@](O)(CC)[C@H](C)O4)O3)O2)[C@H](C)C[C@@H]1C.[Br-]")
4.5
